# EC50 values compiled below
target: TRPML1 (Homo sapiens, UniProt Q9GZU1); construct: expressed in transfected cells; host or cells: HEK T-REx cells stably expressing GCaMP6f and TRPML1; test: Cellular TRPML1 assay (FLIPR, GCaMP6f calcium read-out); assay type: cell-based; settings: HEKT-REx/GCaMP6f/TRPML1 cells, FLIPR TETRA, kinetic response over 300 seconds; read-out: TRPML1 FLIPR pEC50 (converted)
Sequence (Q9GZU1 whole entry): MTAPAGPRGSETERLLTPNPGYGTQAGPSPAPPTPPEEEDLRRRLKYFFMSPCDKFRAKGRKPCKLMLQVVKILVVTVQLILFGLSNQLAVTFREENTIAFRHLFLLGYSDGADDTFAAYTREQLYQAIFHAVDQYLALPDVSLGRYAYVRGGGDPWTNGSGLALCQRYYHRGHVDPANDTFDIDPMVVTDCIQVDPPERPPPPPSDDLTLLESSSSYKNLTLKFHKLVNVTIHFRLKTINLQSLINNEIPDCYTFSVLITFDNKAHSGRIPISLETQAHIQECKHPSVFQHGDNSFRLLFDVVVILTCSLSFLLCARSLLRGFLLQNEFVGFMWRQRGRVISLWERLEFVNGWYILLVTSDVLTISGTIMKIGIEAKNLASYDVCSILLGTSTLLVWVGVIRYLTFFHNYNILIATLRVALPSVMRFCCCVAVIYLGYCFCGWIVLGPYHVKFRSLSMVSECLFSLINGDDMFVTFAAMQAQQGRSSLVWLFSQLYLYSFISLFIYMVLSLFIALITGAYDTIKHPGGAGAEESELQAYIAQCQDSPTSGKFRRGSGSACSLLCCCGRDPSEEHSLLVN

Past entries and their recorded results:
>>> df
                                   compound  observation_type              result
0  O=C(Nc1ccc(OC2CCCC2)c(O)c1)c1nc(N2CCCC2)oc1CC(F)(F)F              EC50    1000 to 10000 nM
1  O=C(Nc1ccc(OC2CCCC2(F)F)c(F)c1)c1nc(N2Cc3ccccc3C2)oc1CC(F)(F)F (stereo not drawn)              EC50  10000 to 100000 nM

Returns the measured EC50 for the input compound. Input: CCC(C)Oc1ccc(NC(=O)c2nc(N3CCCC3)oc2CC(F)(F)F)cc1F (stereo not drawn)
1000 to 10000 nM

# repeat for O=C(Nc1cc(F)c2c(c1)CCN2C1CC2CC2C1)c1nc(N2CCCC2)oc1CC(F)(F)F (stereo not drawn)
1000 to 10000 nM

// query: O=C(Nc1ccc(OC2CCCC2(F)F)c(F)c1)c1nc(N2CCC(CO)C2)oc1CC(F)(F)F (stereo not drawn)
1000 to 10000 nM

Thanks! And `CCOCc1oc(N2CCCC2)nc1C(=O)Nc1ccc(N2CCCCC2)c(F)c1` ?
1000 to 10000 nM

Continue with CCN(c1ccc(NC(=O)c2nc(N3CCCC3)oc2CC(F)(F)F)cc1F)C1CCCC1(F)F (stereo not drawn)
10000 to 100000 nM

Note, next up: `CCCN(CCOC)c1nc(C(=O)Nc2cc(F)c(O[C@@H]3C[C@@H]4C[C@@H]4C3)c(F)c2)c(CC(F)(F)F)o1`
10000 to 100000 nM

Now consider CCC1(CC)CN(c2nc(C(=O)Nc3cc(C)c(OC4CC5CC(C5)C4)c(F)c3)c(CCF)o2)C1 (stereo not drawn) and answer again.
10 to 1000 nM

Same again, this time with N#CC1CN(c2nc(C(=O)Nc3ccc(OC4CCCC4(F)F)c(F)c3)c(CC(F)(F)F)o2)C1 (stereo not drawn)
1000 to 10000 nM

Param item: COC1(C)CN(c2nc(C(=O)Nc3cc(O)c(OC4CC5CC(C5)C4)c(F)c3)c(CC(F)(F)F)o2)C1 (stereo not drawn)
1000 to 10000 nM

Queued: CCC1(CC)CN(c2nc(C(=O)Nc3ccc(OC4CC5CC(C5)C4)c(F)c3)c(CCF)o2)C1 (stereo not drawn)
10 to 1000 nM

Here is the next compound: `CCC1(CC)CN(c2nc(C(=O)Nc3ccc(O[C@@H]4C[C@@H]5C[C@@H]5C4)c(O)c3)c(CC(F)(F)F)o2)C1`
1000 to 10000 nM

Param item: O=C(Nc1ccc(OC2CCCCC2(F)F)c(F)c1)c1nc(N2CCC3(COC3)C2)oc1CC(F)(F)F (stereo not drawn)
10 to 1000 nM

What about CC1CCCN1c1nc(C(=O)Nc2ccc(OC3CCCC3)c(F)c2)c(CC(F)(F)F)o1 (stereo not drawn) ?
1000 to 10000 nM

`COC1(C)CN(c2nc(C(=O)Nc3cc(F)c(O[C@@H]4C[C@@H]5C[C@@H]5C4)c(Cl)c3)c(CC(F)(F)F)o2)C1` , same question.
10 to 1000 nM

Another compound to look at: CCc1oc(N2CC3COCC3C2)nc1C(=O)Nc1cc(F)c(N2CC3CC(C3)C2)c(F)c1 (stereo not drawn)
1000 to 10000 nM

Next entry: Cc1oc(N2CCCC2C)nc1C(=O)Nc1ccc(N2CCCCC2)c(F)c1 (stereo not drawn)
1000 to 10000 nM

Try the compound `Cc1oc(N2C3CCC2COC3)nc1C(=O)Nc1ccc(N2CCCCC2)c(F)c1`
10000 to 100000 nM

###

target: TRPML1 (Homo sapiens); construct: expressed in transfected cells; host or cells: HEK T-REx cells stably expressing GCaMP6f and TRPML1; experiment: Cellular TRPML1 assay (FLIPR, GCaMP6f calcium read-out); assay type: cell-based; conditions: HEKT-REx/GCaMP6f/TRPML1 cells, FLIPR TETRA, kinetic response over 300 seconds; read-out: TRPML1 FLIPR pEC50 (converted)
The following molecules are listed with their measured EC50 values.

Observe how each entry below is paired with its result.
In [3]: df
Out[3]:
                                   molecule  observation_type        result
0  O=C(Nc1ccc(OC2CCCC2(F)F)c(F)c1)c1nc(N2CC(F)(F)C2)oc1CC(F)(F)F (centres unmarked) [Example 16]              EC50  0.01 to 1 µM
1  O=C(Nc1ccc(OC2CCOC2)c(F)c1)c1nc(N2CCCC2)oc1CC(F)(F)F (centres unmarked) [Example 47]              EC50    1 to 10 µM
2  CCc1oc(N2CC(CC)(OC)C2)nc1C(=O)Nc1ccc(O[C@@H]2C[C@@H]3C[C@@H]3C2)c(F)c1F [Example 250]              EC50  10 to 100 µM
3  O=C(Nc1ccc(N2CCCCC2)c(F)c1)c1nc(N2CCC3(CC3)C2)oc1CC(F)(F)F [Example 27]              EC50    1 to 10 µM
4  Cc1oc(N2C[C@H]3CCO[C@H]3C2)nc1C(=O)Nc1ccc(N2CCCCC2)c(F)c1 [Example 123]              EC50    1 to 10 µM

Query for TRPML1 (Homo sapiens): what EC50 does the record show for O=C(Nc1ccc(N2CCCCC2)c(F)c1)c1nc(N2CC3(C2)CC(F)(F)C3)oc1CC(F)(F)F [Example 30] ?
1 to 10 µM

Similarly, O=C(Nc1ccc(OC2CCCCC2(F)F)c(F)c1)c1nc(N2CCCC2)oc1CC(F)(F)F (centres unmarked) [Example 76] ?
0.01 to 1 µM

Param item: CCc1oc(N2CC(C)(OC)C2)nc1C(=O)Nc1cc(O)c(OC2CC3C[C@@H]3C2)c(Cl)c1 (some centres unmarked) [Example 271]
1 to 10 µM

###

target: TRPML1 (Homo sapiens, UniProt Q9GZU1); construct: expressed in transfected cells; host or cells: HEK T-REx cells stably expressing GCaMP6f and TRPML1; assay: Cellular TRPML1 assay (FLIPR, GCaMP6f calcium read-out); assay type: cell-based; settings: HEKT-REx/GCaMP6f/TRPML1 cells, FLIPR TETRA, kinetic response over 300 seconds; read-out: TRPML1 FLIPR pEC50 (converted)
Quick reference: EC50 of the listed items.

>>> df
                                   molecule        result
0  CCc1oc(N2CCCC2)nc1C(=O)Nc1cc(F)c(O[C@@H]2C[C@@H]3C[C@@H]3C2)c(Cl)c1  0.01 to 1 µM
1  Cc1cc(NC(=O)c2nc(N3CCCC3)oc2CC(F)(F)F)cc(F)c1NC1C2CCCC1CC2 (stereo not shown)  10 to 100 µM
2  CCC1(OC)CN(c2nc(C(=O)Nc3ccc(OC4CC5CC(C5)C4)c(F)c3)c(CC(F)(F)F)o2)C1 (stereo not shown)  0.01 to 1 µM

Looking for the measured EC50 of `CCc1oc(N2CC(CC)(OC)C2)nc1C(=O)Nc1cc(F)c(O[C@@H]2C[C@@H]3C[C@@H]3C2)cc1F` , can you help?
1 to 10 µM

###

The compounds listed here are annotated with their EC50.
molecular target: TRPML1 (Homo sapiens); construct: expressed in transfected cells; host or cells: HEK T-REx cells stably expressing GCaMP6f and TRPML1; experiment: Cellular TRPML1 assay (FLIPR, GCaMP6f calcium read-out); type: cell-based; conditions: HEKT-REx/GCaMP6f/TRPML1 cells, FLIPR TETRA, kinetic response over 300 seconds; read-out: TRPML1 FLIPR pEC50 (converted)

Worked examples, 3 compounds total:
>>> df
                                   compound         result
0  CCc1oc(N2CC(C)(OC)C2)nc1C(=O)Nc1ccc(O[C@@H]2C[C@@H]3C[C@@H]3C2)c(Cl)c1 [Example 249]  10 to 1000 nM
1  CCN(C)Cc1oc(N2CC(CC)(OC)C2)nc1C(=O)Nc1cc(F)c(OC2CC3CC(C3)C2)c(F)c1 (stereo not shown) [Example 302]  10 to 1000 nM
2  O=C(Nc1ccc(OC2CCCC2(F)F)c(F)c1)c1nc(N2CC(C(F)(F)F)C2)oc1CC(F)(F)F (stereo not shown) [Example 18]  10 to 1000 nM

Value lookup for EC50; key = COC1(C)CN(c2nc(C(=O)Nc3cc(F)c(O[C@@H]4C[C@@H]5C[C@@H]5C4)c(F)c3)c(CC(F)(F)F)o2)C1 [Example 178]
10 to 1000 nM

Next: CN(c1c(F)cc(NC(=O)c2nc(N3CCCC3)oc2CC(F)(F)F)cc1F)C1CCCC1(F)F (stereo not shown) [Example 81]
1000 to 10000 nM

And what about the compound Cc1oc(N(C)C(C)C)nc1C(=O)Nc1ccc(N2CCCCC2)c(F)c1 [Example 115] ?
10000 to 100000 nM

Same lookup for O=C(Nc1ccc(N2CCCCC2)c(O)c1)c1nc(N2CCCC2)oc1CC(F)(F)F [Example 84] , please.
1000 to 10000 nM
